Test system: SK-MEL-2 melanoma
EXPERIMENT NOTES: NCI tumour cell line growth inhibition, 48 h; in the data active = GI50 below about 0.43 µM; inactive = the rest
Please reply with one of these outcomes: YES (active), NO (inactive)

Completed entries (count: 8):
C=C(CNC(=O)Nc1ccc(-c2ccccc2)cc1)c1ccc(C(=O)Nc2ccccc2N)cc1 | NO
Cc1ccccc1NC(=S)Nc1ccccn1 | NO
CO[C@H](C(=O)[C@@H](O)[C@@H](C)O)[C@@H]1Cc2cc3cc(O[C@H]4C[C@@H](O[C@H]5C[C@@H](O)[C@H](O)C(C)O5)[C@H](O)C(C)O4)c(C)c(O)c3c(O)c2C(=O)[C@H]1O[C@H]1C[C@@H](O[C@H]2C[C@@H](O[C@H]3C[C@@H](OC)[C@H](O)C(C)O3)[C@@H](O)C(C)O2)C(O)(O)C(C)O1 (stereo partly specified) | YES
Cc1ccc(C(=O)N(CCCN)[C@@H](c2nc3cc(Cl)ccc3c(=O)n2Cc2ccccc2)C(C)C)cc1 | YES
Cc1c2cnccc2c(C)c2c1c1cc(C3OCCCO3)ccc1n2C | YES
CCCN(CCC)CCCNCc1cc(I)cc(C)c1O | NO
CC1=NN(C(=O)c2ccccc2O)C(=O)/C1=C/c1ccc([N+](=O)[O-])cc1 | NO
Cc1[nH]ncc1-c1cc2nc(C3CC4CCN3CC4)[nH]c(=O)c2s1 (stereo unspecified) | NO

I'd appreciate the recorded outcome for Cc1c2cc[nH]c(=O)c2c(C)c2c1[nH]c1cc(OCCN3CCN(C)CC3)ccc12 from this test.
NO

Further, for O=S(=O)(Nc1ncccn1)c1ccc(N=Nc2ccc(O)c3ncccc23)cc1 ?
NO

Record: Nc1ccn(C2OC(CO)C(O)C2F)c(=O)n1 (stereo unspecified)
NO

Subsequent entry: CC/C(Cc1ccccc1)=C(\c1ccc(OCCN2CCCCCC2)cc1)c1ccc(OC(=O)NCc2ccccc2)cc1
NO

Now this one: COC1=CC(c2ccc[nH]2)=N/C1=C\c1[nH]c(C)c(C(=O)OCc2ccccc2)c1C
YES

Here is the next molecule: C=CC(=O)Nc1ccc(Nc2nccc(-c3ccc(N4CCCC4)c(C#N)c3)n2)cc1
NO

For COc1cc(-c2nn3c(/C=C4/C(=O)Nc5ccccc54)c(-c4ccc(C)cc4)nc3s2)cc(OC)c1OC then?
NO

Entry to check: O=C(Nc1ccc(Cl)cc1Cl)c1ccc(NC2=C(Cl)C(=O)N(Cc3ccccc3)C2=O)cc1
NO

---

# GI50 values compiled below
Tested on: SK-OV-3 ovarian
EXPERIMENT NOTES: NCI tumour cell line growth inhibition, 48 h

Study these solved cases before continuing.
COc1cc(-c2nn3c(/C=C4/C(=O)Nc5ccccc54)c(-c4ccc(C)cc4)nc3s2)cc(OC)c1OC | 15.2 µM
COc1cc(/C(Cl)=C/C=C/C(=O)c2c(C)[n+]([O-])c3ccc(Cl)cc3[n+]2[O-])cc(OC)c1OC | 7.4 µM

Given the compound C=C(Cn1c(=O)c2ccccc2c2ccccc21)c1ccc(C(=O)Nc2ccccc2N)cc1 , what is its reported GI50?
24.3 µM

Ok, now COc1cc2c(cc1OCCCN1CCN(CCCOc3cc4c(cc3OC)C(=O)N3CCC[C@H]3C=N4)CC1)C=CC(C)(C)O2
1.61 µM

---

Entries and their measured TGI follow.
Test system: OVCAR-8 ovarian
EXPERIMENT NOTES: NCI tumour cell line growth inhibition, 48 h

# example entries with known answers
C=C1C(=O)O[C@H]2[C@H]1CC/C(CNC(=O)/C=C/c1ccc(Br)cc1)=C\CC[C@@]1(C)O[C@@H]21 | 5.75 µM
CC[P+](C)(Cc1ccccc1)c1ccccc1 (stereo not given) | > 100 µM
CN(C)c1ccc2c(c1)C(=O)N(OS(=O)(=O)c1ccc([N+](=O)[O-])cc1)C2=O | 61.2 µM
[O-]/[N+](=C\c1ccccc1)[C@H](COCc1ccccc1)c1ccccc1 | > 100 µM

Proceeding to the next compound to report its TGI.
Query: TGI; subject: O=C(Cc1ccccc1)NCCc1ccc(O)c(O)c1
> 100 µM
